Hello, the source for this data is patent US20100028340A1, in case you need it.

Biological target: T1, recombinant purified human RGM A (R&D Systems Cat# 2459-RM) (human) (UniProt Q96B86)
T1 sequence: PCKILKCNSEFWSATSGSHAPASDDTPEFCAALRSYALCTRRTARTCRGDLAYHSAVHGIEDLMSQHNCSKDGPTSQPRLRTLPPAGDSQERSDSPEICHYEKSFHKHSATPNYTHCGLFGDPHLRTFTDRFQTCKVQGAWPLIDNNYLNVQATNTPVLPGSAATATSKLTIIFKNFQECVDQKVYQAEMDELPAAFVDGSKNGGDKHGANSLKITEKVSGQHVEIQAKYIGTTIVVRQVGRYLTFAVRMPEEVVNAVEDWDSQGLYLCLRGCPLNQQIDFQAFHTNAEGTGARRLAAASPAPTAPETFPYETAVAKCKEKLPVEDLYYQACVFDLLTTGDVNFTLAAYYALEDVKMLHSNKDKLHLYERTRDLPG
Experiment: SPR (Biacore 3000), antibody captured by anti-human IgG Fc, hRGMA in solution, 25 °C
Measurement Name: koff (s⁻¹)

• h5F9.25 (antibody, human IgG1, V domains shown) VH: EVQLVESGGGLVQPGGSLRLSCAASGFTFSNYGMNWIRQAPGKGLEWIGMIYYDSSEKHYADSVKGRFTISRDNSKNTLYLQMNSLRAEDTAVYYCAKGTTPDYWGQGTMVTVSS VL: DVVLTQSPLSLPVTLGQPASISCRSSQSLEYSDGYTFLEWFLQKPGQSPQLLIYEVSNRFSGVPDRFSGSGSGTDFTLKISRVEAEDVGVYYCFQATHDPLTFGQGTKLEIKR = 0.00329
